System: Bel-7402 human liver cancer cell
Test: In vitro antitumor activity evaluation (SRB/MTT, 72 hours), Bel-7402
Assay type: cell-based
Details: SRB assay, Logit model
ASSAY_READOUT: pIC50
Scale for pIC50: -log10 of concentration given in mol/L; no unit attached.

Entry COc1ccc(/C=C\c2cc(OC)c(OC)c(OC)c2)cc1O [CA-4, combretastatin A-4, reference compound] , pIC50 reported as 6.12

* * *

System: SGC7901 human stomach cancer cell
Assay: In vitro antitumor activity evaluation (SRB/MTT, 72 hours), SGC-7901
Format: cell-based
Conditions: Homo sapiens, SGC-7901, SRB assay, Logit model
ASSAY_READOUT: IC50 (nM)
Numeric only. Scale: nM

{"CHEMICAL_STRING": "COc1cc(/C=C\\c2ccc(OCC(F)(F)F)c(O)c2)cc(OC)c1OC", "ASSAY_READOUT": "IC50", "RECORDED_VALUE": 5}
{"CHEMICAL_STRING": "COc1cc(/C=C\\c2ccc(OC(F)F)c(N)c2)cc(OC)c1OC", "ASSAY_READOUT": "IC50", "RECORDED_VALUE": 18}
{"CHEMICAL_STRING": "COc1cc(/C=C\\c2ccc(OCC(F)(F)F)c(N)c2)cc(OC)c1OC", "ASSAY_READOUT": "IC50", "RECORDED_VALUE": 3}

Turning to the following compound.
Entry COc1cc(/C=C\c2ccc(OC(F)F)c(O)c2)cc(OC)c1OC , IC50 reported as 22

* * *

Tested on: SGC7901 human stomach cancer cell
Experiment: In vitro antitumor activity evaluation (SRB/MTT, 72 hours), SGC-7901
Assay type: cell-based
Settings: SRB assay, Logit model
ASSAY_READOUT: IC50 (nM)
Hi! Could you send only the number? It should be in nM, unit omitted.

Test item COc1ccc(/C=C\c2cc(OC)c(OC)c(OC)c2)cc1O [CA-4, combretastatin A-4, reference compound] ; SGC7901 human stomach cancer cell; reported IC50 was 10
